system.tested: human recombinant acetylcholinesterase (hAChE) (Homo sapiens, UniProt P22303)
Construct: purchased Sigma-Aldrich (Prague, Czech Republic)
Sequence (P22303 32-614): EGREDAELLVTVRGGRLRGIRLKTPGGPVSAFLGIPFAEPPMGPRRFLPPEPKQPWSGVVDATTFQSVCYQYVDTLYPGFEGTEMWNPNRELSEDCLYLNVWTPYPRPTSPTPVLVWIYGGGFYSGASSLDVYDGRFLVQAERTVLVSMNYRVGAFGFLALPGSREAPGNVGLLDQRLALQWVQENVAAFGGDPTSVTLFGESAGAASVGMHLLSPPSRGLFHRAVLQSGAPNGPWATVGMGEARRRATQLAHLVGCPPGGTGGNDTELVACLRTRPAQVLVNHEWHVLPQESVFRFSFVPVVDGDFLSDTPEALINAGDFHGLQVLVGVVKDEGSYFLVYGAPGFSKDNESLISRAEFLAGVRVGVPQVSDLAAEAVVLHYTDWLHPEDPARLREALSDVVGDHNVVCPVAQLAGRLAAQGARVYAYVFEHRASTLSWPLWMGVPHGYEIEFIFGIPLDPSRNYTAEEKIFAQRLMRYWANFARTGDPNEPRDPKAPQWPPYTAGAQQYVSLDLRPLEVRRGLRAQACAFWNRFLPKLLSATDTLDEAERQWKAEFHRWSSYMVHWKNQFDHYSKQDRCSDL
measurement.description: biochemical
Format: biochemical
condition.context: ratio hBChE IC50/hAChE IC50
Consider the reported Selectivity for hAChE of an entry and match it to a band in LOW (below 0.6), MEDIUM (0.6 to below 1), HIGH (1 or more)

Class label required: COc1ccc(NC(=O)NCCCCNc2c3c(nc4ccc(OC)cc24)CCCC3)cc1.O=C(O)C(O)C(O)C(=O)O
MEDIUM

Could you do the same for COc1ccc(NC(=S)NCCCCCCNc2c3c(nc4ccc(OC)cc24)CCCC3)cc1.O=C(O)C(O)C(O)C(=O)O , please?
MEDIUM

Could you do the same for COc1ccc(NC(=O)NCCNc2c3c(nc4ccc(OC)cc24)CCCC3)cc1.O=C(O)C(O)C(O)C(=O)O , please?
LOW

Could you do the same for COc1ccc(NC(=O)NCCCCCCNc2c3c(nc4ccc(OC)cc24)CCCC3)cc1.O=C(O)C(O)C(O)C(=O)O , please?
HIGH

Could you do the same for COc1ccc(NC(=S)NCCCNc2c3c(nc4ccc(OC)cc24)CCCC3)cc1.O=C(O)C(O)C(O)C(=O)O , please?
HIGH

Could you do the same for COc1ccc(NC(=S)NCCNc2c3c(nc4ccc(OC)cc24)CCCC3)cc1.O=C(O)C(O)C(O)C(=O)O , please?
LOW

Next:
Class label required: COc1ccc(NC(=S)NCCCCNc2c3c(nc4ccc(OC)cc24)CCCC3)cc1.O=C(O)C(O)C(O)C(=O)O
LOW

Could you do the same for COc1ccc(NC(=O)NCCCCCCCCNc2c3c(nc4ccc(OC)cc24)CCCC3)cc1.O=C(O)C(O)C(O)C(=O)O , please?
MEDIUM

Could you do the same for COc1ccc(NC(=O)NCCCCCNc2c3c(nc4ccc(OC)cc24)CCCC3)cc1.O=C(O)C(O)C(O)C(=O)O , please?
HIGH

----------
Target or system AChE (Homo sapiens): recorded Ki listed per item.
Could you give me the number in nM? Just the number is fine.

# query: Ki of entry COc1ccc(NC(=O)NCCCCCNc2c3c(nc4ccc(OC)cc24)CCCC3)cc1.O=C(O)C(O)C(O)C(=O)O
453

Continue with the next molecule.
# query: Ki of entry COc1ccc(NC(=S)NCCCCCCCCNc2c3c(nc4ccc(OC)cc24)CCCC3)cc1.O=C(O)C(O)C(O)C(=O)O
1330

----------
system.tested: human plasma butyrylcholinesterase (hBChE) (Homo sapiens, UniProt P06276)
Sequence (P06276 29-602): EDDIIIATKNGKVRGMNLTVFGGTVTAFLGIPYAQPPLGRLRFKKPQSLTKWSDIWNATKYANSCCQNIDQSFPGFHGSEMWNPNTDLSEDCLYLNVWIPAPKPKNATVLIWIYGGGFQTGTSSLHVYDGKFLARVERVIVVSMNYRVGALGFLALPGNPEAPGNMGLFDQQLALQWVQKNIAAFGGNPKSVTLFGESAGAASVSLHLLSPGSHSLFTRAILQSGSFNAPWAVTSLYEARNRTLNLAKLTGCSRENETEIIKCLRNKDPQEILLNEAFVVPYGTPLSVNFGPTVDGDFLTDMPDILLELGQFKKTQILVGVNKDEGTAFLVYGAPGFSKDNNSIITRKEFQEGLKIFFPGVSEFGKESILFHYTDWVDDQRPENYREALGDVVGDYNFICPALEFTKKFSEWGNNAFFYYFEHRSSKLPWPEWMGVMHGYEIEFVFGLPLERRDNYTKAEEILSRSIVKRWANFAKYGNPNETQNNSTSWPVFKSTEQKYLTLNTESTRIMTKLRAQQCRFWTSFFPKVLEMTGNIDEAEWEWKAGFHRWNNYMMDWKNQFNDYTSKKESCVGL
measurement.description: biochemical
condition.context: mean of at least three experiments; substrate BTCh; pH 7.4, 37 °C; read-out: hBChE IC50 ± SEM
metric.name: pIC50
pIC50 is defined as minus the log10 of a concentration measured in mol/L.

# query: pIC50 of entry COc1ccc(NC(=S)NCCCCCCCNc2c3c(nc4ccc(OC)cc24)CCCC3)cc1.O=C(O)C(O)C(O)C(=O)O
5.50

Could you do the same for COc1ccc(NC(=S)NCCCCCNc2c3c(nc4ccc(OC)cc24)CCCC3)cc1.O=C(O)C(O)C(O)C(=O)O , please?
4.87

Could you do the same for COc1ccc(NC(=O)NCCNc2c3c(nc4ccc(OC)cc24)CCCC3)cc1.O=C(O)C(O)C(O)C(=O)O , please?
4.92

Could you do the same for COc1ccc(NC(=O)NCCCCCCCNc2c3c(nc4ccc(OC)cc24)CCCC3)cc1.O=C(O)C(O)C(O)C(=O)O , please?
5.77

Next:
# query: pIC50 of entry COc1ccc(NC(=S)NCCCCCCNc2c3c(nc4ccc(OC)cc24)CCCC3)cc1.O=C(O)C(O)C(O)C(=O)O
5.03

Values were extracted from paper PMC6331912.
